system: corn (Zea mays); assay: Test A postemergence, corn; format: in vivo; conditions: 125 g ai/ha, 0 to 100 scale (0 no effect, 100 complete control)
Measurement Label: Plant response rating, Corn

1) CC1(C)CC(S(=O)(=O)Cc2c(C(F)(F)F)nc3n(c2=O)CCCO3)=NO1 | 0
2) CC1(C)CC([S+]([O-])Cc2c(C(F)(F)Cl)nc3n(c2=O)CCCC3)=NO1 (stereo not shown) | 0
3) CC1(C)CC(S(=O)(=O)Cc2c(C(F)(F)Cl)nc3n(c2=O)CCC3)=NO1 | 0
4) CC1(C)CC(S(=O)(=O)Cc2c(C(F)(F)Cl)nc3n(c2=O)CCCC3)=NO1 | 0

* * *

test system: goosegrass (Eleusine indica); assay: Test B preemergence, goosegrass; type: in vivo; conditions: 16 g ai/ha, scale 0 to 100
Recorded Plant response rating, Goosegrass values for a group of compounds are listed next.
Measurement Label: Plant response rating, Goosegrass

1. CC1(C)CC(S(=O)(=O)Cc2c(C(F)(F)F)nc3n(c2=O)CCO3)=NO1 | 65
2. CC1(C)CC(S(=O)(=O)Cc2c(C(F)(F)F)nc3ccsn3c2=O)=NO1 | 85
3. CC1(C)CC(S(=O)(=O)Cc2c(C(F)(F)C(F)(F)F)nc3n(c2=O)CCCC3)=NO1 | 50
4. CC1(C)CC(S(=O)(=O)Cc2c(C(F)(F)F)nc3n(c2=O)CCC3)=NO1 | 65
5. CC1(C)CC(S(=O)(=O)Cc2c(C(F)(F)F)nc3n(c2=O)CCCC3)=NO1 | 98
6. CC1(C)CC(S(=O)(=O)Cc2c(C(F)(F)C(F)(F)F)nc3n(c2=O)CCC3)=NO1 | 30
7. CC1(C)CC(S(=O)(=O)Cc2c(C(F)(F)F)nc3n(c2=O)CCS3)=NO1 | 100
8. CC1(C)CC(S(=O)(=O)Cc2c(C(F)(F)Cl)nc3n(c2=O)CCC3)=NO1 | 0

* * *

test system: giant foxtail (Setaria faberii); test: Test B preemergence, giant foxtail; format: in vivo; details: 31 g ai/ha, scale 0 to 100
Measurement Label: Plant response rating, Foxtail, Giant

1) CC1(C)CC(S(=O)(=O)Cc2c(C(F)(F)F)nc3n(c2=O)CCCC3)=NO1 | 90
2) CC1(C)CC(S(=O)(=O)Cc2c(C(F)(F)F)nc3n(c2=O)CCS3)=NO1 | 95
3) CC1(C)CC(S(=O)(=O)Cc2c(C(F)(F)F)nc3n(c2=O)CCO3)=NO1 | 70
4) CC1(C)CC(S(=O)(=O)Cc2c(C(F)(F)F)nc3ccsn3c2=O)=NO1 | 80

* * *

tested on: nightshade (eastern black nightshade, Solanum ptycanthum); assay: Test B preemergence, nightshade; assay type: in vivo; settings: 31 g ai/ha, scale 0 to 100
Description: […]
Measurement Label: Plant response rating, Nightshade

1) CC1(C)CC(S(=O)(=O)Cc2c(C(F)(F)Cl)nc3n(c2=O)CCC3)=NO1 | 0
2) CC1(C)CC(S(=O)(=O)Cc2c(C(F)(F)F)nc3n(c2=O)CCO3)=NO1 | 0
3) CC1(C)CC(S(=O)(=O)Cc2c(C(F)(F)C(F)(F)F)nc3n(c2=O)CCC3)=NO1 | 60
4) CC1(C)CC(S(=O)(=O)Cc2c(C(F)(F)C(F)(F)F)nc3n(c2=O)CCCC3)=NO1 | 50
5) CC1(C)CC(S(=O)(=O)Cc2c(C(F)(F)F)nc3ccsn3c2=O)=NO1 | 0
6) CC1(C)CC(S(=O)(=O)Cc2c(C(F)(F)F)nc3n(c2=O)CCC3)=NO1 | 60
7) CC1(C)CC(S(=O)(=O)Cc2c(C(F)(F)F)nc3n(c2=O)CCS3)=NO1 | 45
8) CC1(C)CC(S(=O)(=O)Cc2c(C(F)(F)F)nc3n(c2=O)CCCC3)=NO1 | 65

FYI, the data here is from patent US20100099561A1.
